# tested_target: bacteriophage T4 DNA polymerase (Enterobacteria phage T4, UniProt P04415)
# Construct: made in house
# Sequence (P04415 whole entry): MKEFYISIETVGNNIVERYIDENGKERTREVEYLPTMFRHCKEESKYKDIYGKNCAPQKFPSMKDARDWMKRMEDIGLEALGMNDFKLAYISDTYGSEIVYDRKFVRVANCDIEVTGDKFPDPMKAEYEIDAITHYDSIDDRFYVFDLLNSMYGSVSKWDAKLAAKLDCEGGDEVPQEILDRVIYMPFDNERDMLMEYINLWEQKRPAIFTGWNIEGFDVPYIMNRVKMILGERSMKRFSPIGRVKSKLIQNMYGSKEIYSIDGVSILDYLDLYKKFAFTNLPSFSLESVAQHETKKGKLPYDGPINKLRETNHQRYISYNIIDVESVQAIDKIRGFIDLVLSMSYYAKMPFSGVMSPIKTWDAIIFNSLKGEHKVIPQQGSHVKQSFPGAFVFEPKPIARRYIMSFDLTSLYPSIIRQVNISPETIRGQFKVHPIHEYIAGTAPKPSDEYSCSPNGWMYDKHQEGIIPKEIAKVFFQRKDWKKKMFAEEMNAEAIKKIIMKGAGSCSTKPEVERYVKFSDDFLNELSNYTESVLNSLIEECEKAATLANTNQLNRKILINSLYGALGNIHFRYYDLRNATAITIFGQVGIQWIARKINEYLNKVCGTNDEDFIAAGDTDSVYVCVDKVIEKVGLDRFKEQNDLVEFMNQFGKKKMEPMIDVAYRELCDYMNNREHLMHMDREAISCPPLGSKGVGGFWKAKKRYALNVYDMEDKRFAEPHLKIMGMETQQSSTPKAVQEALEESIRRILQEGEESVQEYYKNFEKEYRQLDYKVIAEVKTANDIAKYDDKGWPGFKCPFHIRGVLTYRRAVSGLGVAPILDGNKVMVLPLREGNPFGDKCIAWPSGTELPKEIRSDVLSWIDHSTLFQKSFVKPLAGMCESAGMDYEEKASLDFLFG
# assay_protocol: Counter-screen against bacteriophage T4 DNA polymerase
# Type: biochemical
# cond: DRC-1; read at 70'; concentration 80
Record form. Attribute: % inhibition T4 70' 80. Fill in for each entry.
// return numeric value only (unit: %, not printed)

Input: Query % inhibition T4 70' 80 for CC(=O)Nc1cc(C(=O)c2cccs2)nn(-c2ccc(Cl)cc2)c1=O [KU0267905]
Output: 12.69

Input: Query % inhibition T4 70' 80 for N#Cc1c(O)nc(N2CCCCC2)nc1-c1ccc2c(c1)OCO2 [KU0083146]
Output: 25.8853

Input: Query % inhibition T4 70' 80 for COc1ccccc1CC(=O)N1CCc2c(nc3cc(-c4ccccc4Cl)[nH]n3c2=O)C1 [Molecule 49]
Output: -7

Input: Query % inhibition T4 70' 80 for Cn1nc(-c2nc(-c3ccccc3)no2)c2c1CCN(C(=O)Cc1cccs1)C2 [Molecule 58]
Output: 37

Input: Query % inhibition T4 70' 80 for Cc1ccc(N2CCC(NC(=O)Cc3cccs3)C2=O)cc1C (stereo not drawn) [Molecule 57, O=C(NC1CCN(C1=O)c1ccc(c(c1)C)C)Cc1cccs1]
Output: 21.6253

Input: Query % inhibition T4 70' 80 for Nc1cc(Oc2ccc(O)c(N)c2)ccc1O [KU0034728]
Output: 19.0676

Input: Query % inhibition T4 70' 80 for O=C(c1ccccc1)N1CCc2c(nc3cc(-c4ccccc4)[nH]n3c2=O)C1 [Molecule 30]
Output: -5.584

Input: Query % inhibition T4 70' 80 for Cc1cc2[nH]c(C(=O)Nc3ccc(F)cc3)c(CN3CCOCC3)c2s1 [Molecule 60]
Output: 27.0179

Input: Query % inhibition T4 70' 80 for COc1ccc(C2CC(c3ccc(Cl)cc3Cl)Nc3nc(N)nn32)cc1OC (stereo not drawn) [Molecule 43]
Output: 9

Input: Query % inhibition T4 70' 80 for Cc1nc(C)c2c(n1)N(CC1CCCCC1)C(=O)CC2 [KU0218606]
Output: -5.307

Input: Query % inhibition T4 70' 80 for CC(C)CC(C(=O)O)N1C(=O)C2C3C=CC(C2C1=O)C1C(=O)N(C(CC(C)C)C(=O)O)C(=O)C31 (stereo not drawn) [KU0193449]
Output: 40.8979

Input: Query % inhibition T4 70' 80 for COc1ccc(/C=C/c2cc(C(=O)O)c3ccccc3n2)cc1 [Molecule 5, COc1ccc(cc1)/C=C/c1nc2ccccc2c(c1)C(=O)O]
Output: 3.646
